Data origin, for the record: patent US20240190986A1

System: T1, MSLN·His protein (human, UniProt Q13421 296-580, limits assumed)
T1 construct: Bought protein; also called human MSLN·His antigen; not shown: His tag
T1 sequence (Q13421 other isoform, or with tags, fused parts or gaps limits assumed): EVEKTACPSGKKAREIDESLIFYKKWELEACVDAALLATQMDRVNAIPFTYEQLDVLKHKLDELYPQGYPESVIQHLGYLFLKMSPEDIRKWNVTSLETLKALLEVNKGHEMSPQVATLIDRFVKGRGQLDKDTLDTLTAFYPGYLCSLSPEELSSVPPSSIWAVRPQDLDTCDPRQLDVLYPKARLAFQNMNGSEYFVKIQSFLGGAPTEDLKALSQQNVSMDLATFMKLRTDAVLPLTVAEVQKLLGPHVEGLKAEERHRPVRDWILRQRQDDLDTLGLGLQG
Assay Comment: SPR (Biacore), antibody captured on protein A, MSLN·His as analyte
Description: (1) Detection of affinity at protein level: the binding kinetics and affinity of heavy chain antibody to human MSLN·His antigen were determined using surface plasmon resonance (SPR). The purified antibody was flowed through the sensor chips pre-immobilized with protein A, and the antibody was captured by protein A. Then five different concentrations of MSLN·His protein were used as the mobile phase, and the binding time and dissociation time were 30 min and 60 min, respectively. […]
Threshold rule: kon greater than or equal to 600000 M⁻¹ s⁻¹ is 1; below that, 0.

Here are 3 binders together with their reported answers.
M344-IgG4 (antibody, V domains shown, also called M344 heavy chain antibody) VH: QVQLVESGGGLVQSGGSLRLSCVASGSAFSFDAMGWYRQFSATRRERQLVVATSRDGRTYYADSVKGRFTATRDNSKNSLYLEMNSLKPEDTAIYYCAAGDDPKNYSWGQGTQVTVSS	0
M2339-IgG4 (antibody, V domains shown, also called M2339 heavy chain antibody) VH: QLQLGASGGGLVQPGGSLRLSCALSGFTLRELDEFAIGWFRQAPGKEREGVSCISGTGGITHYADSVKGRFTISRDIAKTTVYLQMNSLNSEDTAVYYCAADERCTDRLIRPPTYWGQGTQVTVSS	0
M003-IgG4 (antibody, V domains shown, also called M003 heavy chain antibody) VH: QVQLVESGGGLVQAGGSLRLSCTASGNIFSINAMGWYRQPPGKEWERELVATISSTNSDNTYYKESVKGRFTISTNTAKNTWYLQMNSLKPEDTAMYYCAAENFDRKDRYWAQGTQVTVSS	1

Okay, next one:
Reported kon at or above 600000 M⁻¹ s⁻¹? M119-IgG4 (antibody, V domains shown, also called M119 heavy chain antibody) VH: EVQLVESGGGLVQPGGSLRLSCVASGSDLSFDAMGWYRQFSATVRERQLVVATSRDGRIYYGDSVKGRFTASRDNLKNSVDLEMNNLKPEDTAIYYCAAGDDPKNYDWGPGTQVTVSS
1
